target: c-Met (Homo sapiens, UniProt P08581)
Sequence (P08581 25-1390): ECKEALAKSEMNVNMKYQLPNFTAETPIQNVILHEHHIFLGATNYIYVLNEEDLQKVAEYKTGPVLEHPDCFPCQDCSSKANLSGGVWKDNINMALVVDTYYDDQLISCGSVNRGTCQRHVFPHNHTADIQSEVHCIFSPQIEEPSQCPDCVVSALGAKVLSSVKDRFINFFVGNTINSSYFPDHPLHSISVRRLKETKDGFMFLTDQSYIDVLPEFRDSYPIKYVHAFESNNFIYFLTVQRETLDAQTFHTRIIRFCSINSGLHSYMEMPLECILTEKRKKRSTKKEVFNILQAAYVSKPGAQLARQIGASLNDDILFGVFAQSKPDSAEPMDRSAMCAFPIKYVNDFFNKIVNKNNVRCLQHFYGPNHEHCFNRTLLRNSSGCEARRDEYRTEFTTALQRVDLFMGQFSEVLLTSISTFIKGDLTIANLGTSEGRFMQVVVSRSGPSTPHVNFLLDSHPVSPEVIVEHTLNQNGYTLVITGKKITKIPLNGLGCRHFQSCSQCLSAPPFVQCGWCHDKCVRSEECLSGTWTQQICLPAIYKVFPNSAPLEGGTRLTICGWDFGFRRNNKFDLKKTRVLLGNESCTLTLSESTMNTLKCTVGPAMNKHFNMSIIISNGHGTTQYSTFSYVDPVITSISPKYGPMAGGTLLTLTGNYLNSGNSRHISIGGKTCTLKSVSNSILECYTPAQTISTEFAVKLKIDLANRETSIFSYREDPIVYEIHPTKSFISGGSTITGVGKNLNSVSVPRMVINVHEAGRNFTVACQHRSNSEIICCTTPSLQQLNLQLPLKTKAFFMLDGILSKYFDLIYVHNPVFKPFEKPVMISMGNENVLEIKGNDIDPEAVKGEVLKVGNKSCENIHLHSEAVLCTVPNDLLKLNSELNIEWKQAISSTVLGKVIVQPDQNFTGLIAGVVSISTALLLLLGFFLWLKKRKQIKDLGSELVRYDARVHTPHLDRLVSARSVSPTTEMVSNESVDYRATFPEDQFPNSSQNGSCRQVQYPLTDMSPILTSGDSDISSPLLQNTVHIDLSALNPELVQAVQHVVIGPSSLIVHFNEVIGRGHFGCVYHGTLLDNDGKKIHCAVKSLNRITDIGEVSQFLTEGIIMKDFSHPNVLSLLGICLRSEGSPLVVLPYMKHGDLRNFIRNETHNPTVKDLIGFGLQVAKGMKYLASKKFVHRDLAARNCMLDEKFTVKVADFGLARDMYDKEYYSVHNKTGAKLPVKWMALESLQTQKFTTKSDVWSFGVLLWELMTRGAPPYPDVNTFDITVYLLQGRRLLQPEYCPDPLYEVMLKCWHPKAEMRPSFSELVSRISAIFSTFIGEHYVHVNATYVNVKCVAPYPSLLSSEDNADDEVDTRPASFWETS
measurementType: IC50

Exam item: What reported IC50 corresponds to CC(C)NC(=O)C1CCC(n2c(=NC(=O)c3ccccc3)[nH]c3cc(C=CC(=O)NO)ccc32)CC1 (stereo not shown) [Compound 3b] on c-Met (Homo sapiens, UniProt P08581)?
Marked response: > 10 µM

====

target: ALK L1196M (Homo sapiens, UniProt Q9UM73, L1196M); experiment: ALK mutant in vitro enzymatic assay; details: 20 μM ATP
Sequence (Q9UM73 19-1620 L1196M): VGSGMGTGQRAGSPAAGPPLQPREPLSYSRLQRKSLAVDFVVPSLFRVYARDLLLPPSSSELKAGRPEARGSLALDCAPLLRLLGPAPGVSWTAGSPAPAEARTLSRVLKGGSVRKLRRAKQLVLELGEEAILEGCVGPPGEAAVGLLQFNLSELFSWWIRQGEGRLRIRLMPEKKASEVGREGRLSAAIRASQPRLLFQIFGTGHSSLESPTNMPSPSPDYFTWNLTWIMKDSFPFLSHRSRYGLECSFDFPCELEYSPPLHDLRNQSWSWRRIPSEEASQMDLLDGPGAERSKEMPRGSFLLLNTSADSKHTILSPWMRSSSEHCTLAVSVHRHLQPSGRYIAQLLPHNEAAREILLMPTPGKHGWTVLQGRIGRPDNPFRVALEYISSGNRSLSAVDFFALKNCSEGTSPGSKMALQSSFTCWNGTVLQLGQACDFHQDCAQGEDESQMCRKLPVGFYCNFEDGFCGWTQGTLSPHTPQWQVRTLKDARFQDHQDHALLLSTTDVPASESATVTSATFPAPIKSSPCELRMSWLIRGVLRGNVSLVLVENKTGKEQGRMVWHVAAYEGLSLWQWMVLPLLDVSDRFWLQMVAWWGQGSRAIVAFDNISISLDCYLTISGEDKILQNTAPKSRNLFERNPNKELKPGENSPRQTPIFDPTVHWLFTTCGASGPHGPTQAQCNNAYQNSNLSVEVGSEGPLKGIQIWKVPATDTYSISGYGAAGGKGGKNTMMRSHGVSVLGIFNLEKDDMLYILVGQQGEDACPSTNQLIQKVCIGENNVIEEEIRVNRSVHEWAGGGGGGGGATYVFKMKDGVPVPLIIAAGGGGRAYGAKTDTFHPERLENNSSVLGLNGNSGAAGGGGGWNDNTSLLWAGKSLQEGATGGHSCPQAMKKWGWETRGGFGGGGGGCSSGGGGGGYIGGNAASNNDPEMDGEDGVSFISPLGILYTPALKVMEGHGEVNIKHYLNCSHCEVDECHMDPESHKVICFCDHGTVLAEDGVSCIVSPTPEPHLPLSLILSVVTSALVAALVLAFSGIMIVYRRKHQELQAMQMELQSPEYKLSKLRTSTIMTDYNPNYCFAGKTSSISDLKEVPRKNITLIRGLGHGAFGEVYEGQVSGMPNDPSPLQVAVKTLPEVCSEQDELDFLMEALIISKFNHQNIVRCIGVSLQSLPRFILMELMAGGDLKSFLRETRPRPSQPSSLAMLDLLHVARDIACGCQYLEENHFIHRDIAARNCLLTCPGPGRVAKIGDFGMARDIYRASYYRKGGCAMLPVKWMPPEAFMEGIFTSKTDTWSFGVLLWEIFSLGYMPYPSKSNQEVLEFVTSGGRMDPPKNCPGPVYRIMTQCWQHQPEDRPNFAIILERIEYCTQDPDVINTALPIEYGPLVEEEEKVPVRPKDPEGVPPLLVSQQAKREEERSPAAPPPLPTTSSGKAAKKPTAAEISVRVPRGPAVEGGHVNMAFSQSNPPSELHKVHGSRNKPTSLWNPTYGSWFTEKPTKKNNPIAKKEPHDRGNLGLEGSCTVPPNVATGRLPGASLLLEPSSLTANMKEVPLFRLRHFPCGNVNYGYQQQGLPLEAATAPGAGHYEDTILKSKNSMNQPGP
measurementType: pIC50
// pIC50: -log10(molar conc.)

Exam item: What value of pIC50 has been recorded for this entry: CC(C)NC(=O)C1CCC(n2c(=NC(=O)c3ccccc3)[nH]c3cc(C=CC(=O)NO)ccc32)CC1 (stereo not shown)
Marked response: 8.31
